biological target: KiSS-1 receptor (Homo sapiens); assay: Binding affinity to human KISS1R expressed in CHO cell membranes
Sequence (Q969F8 whole entry): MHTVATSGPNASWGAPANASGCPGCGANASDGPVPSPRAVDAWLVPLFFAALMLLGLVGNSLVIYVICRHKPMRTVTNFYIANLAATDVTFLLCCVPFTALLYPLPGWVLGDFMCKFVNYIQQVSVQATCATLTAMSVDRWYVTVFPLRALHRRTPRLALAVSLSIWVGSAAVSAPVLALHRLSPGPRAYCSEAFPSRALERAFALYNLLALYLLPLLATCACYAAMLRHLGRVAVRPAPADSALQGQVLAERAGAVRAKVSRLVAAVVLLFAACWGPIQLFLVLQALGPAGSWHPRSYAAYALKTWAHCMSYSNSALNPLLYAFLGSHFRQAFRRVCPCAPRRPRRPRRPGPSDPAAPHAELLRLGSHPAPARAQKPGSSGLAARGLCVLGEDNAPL
pKi: −log10 of the molar value. Non-standard residues stand in square brackets, D forms with d. Residues, ends and D or L forms follow the SMILES beside them. Arg(Me) = CNC(=N)NCCC[C@H](N)C(=O)O; azaGly = NNC(=O)O
recorded.endpoint: pKi

| compound | recorded.endpoint | value.measured |
| --- | --- | --- |
| CNC(N)=NCCC[C@H](NC(=O)[C@H](CC(C)C)NC(=O)NNC(=O)[C@H](Cc1ccccc1)NC(=O)[C@H](CO)NC(=O)[C@H](CC(N)=O)NC(=O)[C@H](Cc1ccccc1)NC(=O)[C@@H](CC(N)=O)NC(=O)[C@H](N)Cc1ccc(O)cc1)C(=O)N[C@@H](Cc1ccccc1)C(N)=O (H-[dY][dN]FNSF[azaGly]L[Arg(Me)]F-NH2) | pKi | 9.92 |
| CNC(=N)NCCC[C@H](NC(=O)[C@H](CC(C)C)NC(=O)NNC(=O)[C@H](Cc1ccccc1)NC(=O)[C@H](CO)NC(=O)[C@H](CC(N)=O)NC(=O)[C@@H](NC(=O)[C@H](N)Cc1ccc(O)cc1)[C@@H](C)O)C(=O)N[C@@H](Cc1ccccc1)C(N)=O (H-[dY]TNSF[azaGly]L[Arg(Me)]F-NH2) | pKi | 9.70 |
| CNC(=N)NCCC[C@H](NC(=O)[C@H](CC(C)C)NC(=O)NNC(=O)[C@H](Cc1ccccc1)NC(=O)[C@H](CO)NC(=O)[C@H](CC(N)=O)NC(=O)[C@H](Cc1c[nH]c2ccccc12)NC(=O)[C@@H](Cc1cnc[nH]1)NC(=O)[C@H](N)Cc1ccc(O)cc1)C(=O)N[C@@H](Cc1ccccc1)C(N)=O | pKi | 10.48 |
| CNC(N)=NCCC[C@H](NC(=O)[C@H](CC(C)C)NC(=O)NNC(=O)[C@H](Cc1ccccc1)NC(=O)[C@H](CO)NC(=O)[C@H](CC(N)=O)NC(=O)[C@H](Cc1ccccc1)NC(=O)[C@H](N)Cc1ccc(O)cc1)C(=O)N[C@@H](Cc1ccccc1)C(N)=O | pKi | 10.07 |
| CC(C)C[C@H](NC(=O)CNC(=O)[C@H](Cc1ccccc1)NC(=O)[C@H](CO)NC(=O)[C@H](CC(N)=O)NC(=O)[C@H](Cc1c[nH]c2ccccc12)NC(=O)[C@H](CC(N)=O)NC(=O)[C@@H](N)Cc1ccc(O)cc1)C(=O)N[C@@H](CCCNC(=N)N)C(=O)N[C@@H](Cc1ccccc1)C(N)=O [KISSPEPTIN-10] | pKi | 10.41 |
| CNC(N)=NCCC[C@H](NC(=O)[C@H](CC(C)C)NC(=O)NNC(=O)[C@H](Cc1ccccc1)NC(=O)[C@H](CO)NC(=O)[C@H](CC(N)=O)NC(=O)[C@@H](Cc1ccncc1)NC(=O)[C@H](CC(N)=O)NC(=O)[C@H](N)Cc1ccc(O)cc1)C(=O)N[C@@H](Cc1ccccc1)C(N)=O | pKi | 9.92 |
| CNC(=N)NCCC[C@H](NC(=O)[C@H](CC(C)C)NC(=O)NNC(=O)[C@H](Cc1ccccc1)NC(=O)[C@H](CO)NC(=O)[C@H](CC(N)=O)NC(=O)[C@H](Cc1c[nH]c2ccccc12)NC(=O)[C@H](CC(N)=O)NC(=O)[C@@H](C)N)C(=O)N[C@@H](Cc1ccccc1)C(N)=O (H-[dA]NWNSF[azaGly]L[Arg(Me)]F-NH2) | pKi | 9.29 |
